Biological target: EGFR (murine) (UniProt P00533)
Sequence (P00533 whole entry, looked up): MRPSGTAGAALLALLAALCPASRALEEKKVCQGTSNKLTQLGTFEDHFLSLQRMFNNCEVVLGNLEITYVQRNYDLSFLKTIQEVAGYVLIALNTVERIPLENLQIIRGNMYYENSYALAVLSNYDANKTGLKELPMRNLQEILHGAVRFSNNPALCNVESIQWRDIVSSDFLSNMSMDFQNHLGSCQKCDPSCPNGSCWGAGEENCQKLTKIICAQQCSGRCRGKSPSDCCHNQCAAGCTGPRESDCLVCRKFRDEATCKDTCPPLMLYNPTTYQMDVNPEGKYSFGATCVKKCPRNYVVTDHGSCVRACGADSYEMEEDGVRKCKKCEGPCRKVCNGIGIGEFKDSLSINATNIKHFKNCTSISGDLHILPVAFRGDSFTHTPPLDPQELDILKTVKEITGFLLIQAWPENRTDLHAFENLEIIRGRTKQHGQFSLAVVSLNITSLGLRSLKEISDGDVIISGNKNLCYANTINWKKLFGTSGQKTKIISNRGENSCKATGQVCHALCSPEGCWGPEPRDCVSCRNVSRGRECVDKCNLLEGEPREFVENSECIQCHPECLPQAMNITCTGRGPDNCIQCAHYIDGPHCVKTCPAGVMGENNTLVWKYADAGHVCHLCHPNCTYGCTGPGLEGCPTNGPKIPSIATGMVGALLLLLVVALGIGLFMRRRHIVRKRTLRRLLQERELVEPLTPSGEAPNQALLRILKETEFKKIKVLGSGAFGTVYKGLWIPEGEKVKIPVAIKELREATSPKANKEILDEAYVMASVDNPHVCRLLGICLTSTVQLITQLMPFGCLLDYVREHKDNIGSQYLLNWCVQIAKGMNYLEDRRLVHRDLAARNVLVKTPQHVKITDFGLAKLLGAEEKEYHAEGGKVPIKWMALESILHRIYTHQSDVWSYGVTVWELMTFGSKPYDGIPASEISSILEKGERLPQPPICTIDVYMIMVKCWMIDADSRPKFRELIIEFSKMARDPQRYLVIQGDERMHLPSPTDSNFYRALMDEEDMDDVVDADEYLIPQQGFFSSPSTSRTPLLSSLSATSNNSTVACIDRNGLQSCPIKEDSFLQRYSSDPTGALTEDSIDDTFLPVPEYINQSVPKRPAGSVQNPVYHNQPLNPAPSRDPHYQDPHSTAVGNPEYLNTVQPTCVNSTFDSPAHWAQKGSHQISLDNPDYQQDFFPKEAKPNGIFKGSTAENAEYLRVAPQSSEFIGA
Settings: nih3t3/c7
For each of the compounds below, state its IC50.
One number for each entry, in µM.

Use these answered entries as a reference point.
1) Cc1ccc2ncnc(Nc3cccc(C(F)(F)F)c3)c2c1 : 0.86
2) N#C/C(=C\c1cc(O)c(O)c(Br)c1)C(=O)NCCCNC(=O)/C(C#N)=C/c1cc(O)c(O)c(Br)c1 : 31.5

# batch: return IC50 for each of the 4 compounds below
1. Cc1ccc2ncnc(Nc3cccc(Cl)c3)c2c1
2. CC(C)(C)c1cc(/C=C(\C#N)c2c(C#N)c(N)nn2-c2ccccc2)cc(C(C)(C)C)c1O
3. Cc1cc2nc(CSCCCSCc3nc4cc(C)c(C)cc4nc3-c3ccccc3)c(-c3ccccc3)nc2cc1C
4. COC(=O)c1ccc(NCc2cc(O)ccc2O)cc1

## Result
1. 0.06
2. 25
3. 12.5
4. 43
